The measured values listed here are drawn from ChEMBL document CHEMBL3865797.

test system: Micrococcus luteus; assay: Antibacterial activity against Micrococcus luteus ATCC 4698 measured after 24 hrs by two-fold serial dilution method; format: functional; conditions: NCTC 2665, 24 h
OUTCOME_MEASURE: MIC (µg/mL)
Number in µg/mL, nothing else.

MOL | TARGET_OF_ASSAY | MIC, µg/mL
CCCn1c(COc2c(OC)ccc3cc4[n+](cc23)CCc2cc3c(cc2-4)OCO3)nc2ccccc21.[Cl-] | Micrococcus luteus | 32
COc1ccc2cc3[n+](cc2c1OCc1nc2ccccc2[nH]1)CCc1cc2c(cc1-3)OCO2.[Cl-] | Micrococcus luteus | 32

Reported MIC ( CCCCCn1c(COc2c(OC)ccc3cc4[n+](cc23)CCc2cc3c(cc2-4)OCO3)nc2ccccc21.[Cl-] ) = 32

Summary for this compound, CCCCCCCCn1c(COc2c(OC)ccc3cc4[n+](cc23)CCc2cc3c(cc2-4)OCO3)nc2ccccc21.[Cl-] : MIC is 64

The recorded MIC for entry CCn1cc(C(=O)O)c(=O)c2cc(F)c(N3CCNCC3)cc21 equals 2

What the record says about COc1ccc2cc3[n+](cc2c1OCc1nc2ccc(Cl)cc2[nH]1)CCc1cc2c(cc1-3)OCO2.[Cl-] : MIC is 128

The compound listed as COc1ccc2cc3[n+](cc2c1OCc1nc2ccc(F)cc2[nH]1)CCc1cc2c(cc1-3)OCO2.[Cl-] has a reported MIC of 16

Noted for COc1ccc2cc3[n+](cc2c1OCc1nc2ccccc2n1Cc1ccccc1F)CCc1cc2c(cc1-3)OCO2.[Cl-] : its MIC reads 8
